# Tested on: SNB-75 CNS
# assay.notes: NCI tumour cell line growth inhibition, 48 h
readout.label: TGI (µM)
Provide the reading as a plain figure in µM.

The cases that follow already have their TGI on record.
>>> experimental_result("COc1cc(Nc2ncnc(Nc3ccc4c(n3)NC(=O)C(C)(C)O4)n2)cc(OC)c1OC")
0.724
>>> experimental_result("Cc1cc(NS(=O)(=O)c2ccc(Nc3c4ccccc4nc4c(C(=O)NCCO)cccc34)cc2)no1")
53.9
>>> experimental_result("COc1cc2nc(-c3cccc4cccnc34)nc(NC3CCN(Cc4ccccc4)CC3)c2cc1OC")
3.56

If you can, please state the reported TGI value of COc1ccc2c(c1OC)C(=O)O[C@@H]2[C@H]1c2c(cc3c(c2OC)OCO3)CCN1C . 34

----------
# Tested on: M19-MEL melanoma
# assay.notes: NCI tumour cell line growth inhibition, 48 h
readout.label: TGI

The cases that follow already have their TGI on record.
>>> experimental_result("CCC(=O)C(C(=O)CC)c1c(OC(=O)c2ccccc2)ccc(O)c1C(=O)OC")
"> 100 µM"
>>> experimental_result("OC12c3ccccc3C1CCCCCC21OCCCO1 (stereo unspecified)")
"> 100 µM"
>>> experimental_result("CN(C)CCCCCNc1c2ccccc2nc2cccc([N+](=O)[O-])c12")
"0.0194 µM"
>>> experimental_result("O=c1[nH]c(=O)n(C2CC(O)C(CO)O2)cc1COCC(F)(F)F (stereo unspecified)")
"> 100 µM"
>>> experimental_result("CCn1c(CSc2nc(-c3ccccc3)c(-c3ccccc3)[nH]2)n[nH]c1=S")
"> 100 µM"

Please turn your attention to the following entry.
If you can, please state the reported TGI value of O=C(N/C(=C/c1cccc([N+](=O)[O-])c1)c1nc2ccc(Cl)cc2[nH]1)c1ccccc1 . > 100 µM

----------
# Test system: HOP-18 NSCLC
# assay.notes: NCI tumour cell line growth inhibition, 48 h
Listing of entries alongside the reported TGI.

The cases that follow already have their TGI on record.
>>> experimental_result("C=CCn1c(=N)/c(=C(\\N)O)s/c1=C1/SC(=S)N(c2ccc(C)cc2)C1=O")
"> 100 µM"
>>> experimental_result("C/C(O)=C(\\N=O)C(=O)NCc1ccccc1")
"> 100 µM"
>>> experimental_result("CC(C)=C1CCC(CN2CCOCC2)C1=O (stereo not given)")
"23.8 µM"
>>> experimental_result("CC1=C(C(=O)Nc2ccccc2)C(c2cc(Cl)cc(Cl)c2)C(C(=O)Nc2ccccc2)=C(C)N1")
"26.6 µM"
>>> experimental_result("O=C(N/C(=C/c1cccc([N+](=O)[O-])c1)c1nc2ccc(Cl)cc2[nH]1)c1ccccc1")
"> 100 µM"
>>> experimental_result("COc1cccc2nc3c(C(=O)NCCN(C)C)cccc3nc12")
"> 79.4 µM"
>>> experimental_result("COc1ccc(/C(Cl)=C(\\C=O)c2ccc(Cl)cc2)cc1OC")
"> 100 µM"
>>> experimental_result("O=C(NC(=O)c1cn(CCN2CCN(C(=O)NCCCCCCNC(=O)N3CCN(CCn4cc(C(=O)NC(=O)OCc5ccccc5)c(=O)[nH]c4=O)CC3)CC2)c(=O)[nH]c1=O)OCc1ccccc1")
"> 100 µM"

If you can, please state the reported TGI value of CCN(CC)c1ccc(N=Nc2ccc(-c3nc4cccn(C)c-4n3)cc2)cc1 . 89.9 µM

If you can, please state the reported TGI value of OC12c3ccccc3C1CCCCCC21OCCCO1 (stereo not given) . > 100 µM

----------
# Test system: SR leukemia
# assay.notes: NCI tumour cell line growth inhibition, 48 h
Listing of entries alongside the reported TGI.

>>> experimental_result("O=C(Nc1ccc2cc3ccccc3cc2c1)c1cc2c(cc1Cl)Sc1nccn1S2(=O)=O")
"> 100 µM"
>>> experimental_result("CCOC(=O)C1(C(=O)OCC)C=C(c2ccccc2)N(C2OC(COC(C)=O)C(OC(C)=O)C(OC(C)=O)C2OC(C)=O)C1=S (configuration not stated)")
"> 100 µM"
>>> experimental_result("COc1ccc(C2C3=C(COC3=O)OC(C)(C)Oc3cc4c(cc32)OCO4)cc1OC (configuration not stated)")
"> 100 µM"

If you can, please state the reported TGI value of O=C(NCc1ccc2ccc3cccnc3c2n1)c1ccc[n+](Cc2ccccc2)c1 . > 100 µM

If you can, please state the reported TGI value of Nc1ccc(-c2ccc3ncc4ccc(=O)n(-c5cccc(C(F)(F)F)c5)c4c3c2)cn1 . 0.56 µM

If you can, please state the reported TGI value of C[n+]1cn(-c2nc3ccccc3nc2[N-]S(=O)(=O)c2ccccc2)c2ccccc21 . > 100 µM

If you can, please state the reported TGI value of COC(=O)CCC(=O)N1CC1C (configuration not stated) . > 100 µM

If you can, please state the reported TGI value of CC(=O)NC1C(OCc2ccccc2)OC(CO)C(O)C1OCC(=O)N[C@@H](C)C(=O)N[C@H](CCC(=O)NCCNc1ccc([N+](=O)[O-])c2[nH]c3ccccc3c(=O)c12)C(N)=O (some centres not stated) . > 100 µM

If you can, please state the reported TGI value of CC(CC[C@@]1(O)OC2C[C@H]3[C@@H]4CC[C@H]5CC(OC6OC(CO)C(OC7OC(CO)C(O)C(OC8OCC(O)C(O)C8O)C7OC7OC(CO)C(O)C(O)C7O)C(O)C6O)[C@H](O)CC5(C)[C@H]4CCC3(C)C2[C@@H]1C)COC1OC(CO)C(O)C(O)C1O (some centres not stated) . > 50 µM

If you can, please state the reported TGI value of O=c1c2c3c(sc2nc2n1N=CN(c1ccc(F)cc1)C2)CCCC3 . > 100 µM

If you can, please state the reported TGI value of NS(=O)(=O)c1nnc(NS(=O)(=O)c2ccc([N+](=O)[O-])cc2)s1 . > 100 µM

----------
# System: SW-620 colon
# assay.notes: NCI tumour cell line growth inhibition, 48 h
readout.label: TGI

The cases that follow already have their TGI on record.
>>> experimental_result("C#C[C@]1(O)CC[C@H]2[C@@H]3CCC4=C/C(=N/OC(=O)c5cccc6c(=O)c7ccccc7[nH]c56)CCC4[C@H]3CC[C@@]21CC (stereo partly specified)")
"> 63.5 µM"
>>> experimental_result("COc1ccc(/C(Cl)=C(\\C=O)c2ccc(Cl)cc2)cc1OC")
"15.4 µM"

Please turn your attention to the following entry.
If you can, please state the reported TGI value of COc1cc2c(c(OC)c1OC)-c1ccc(SC)c(=O)cc1C(CC(=O)Oc1cccc(F)c1)C2 (stereo unspecified) . > 100 µM

----------
Listing of entries alongside the reported TGI.
# Test system: RXF 393 renal
# assay.notes: NCI tumour cell line growth inhibition, 48 h

The cases that follow already have their TGI on record.
>>> experimental_result("CCOC(=O)C#Cc1c(C(=O)OCC)nnn1[C@@H]1O[C@H](CO)[C@H]2OC3(CCCCC3)O[C@H]21")
"3.46 µM"
>>> experimental_result("C/C(CC(=O)Nc1ccc(NC(=O)C/C(C)=N\\NC(N)=O)cc1)=N/NC(N)=O")
"> 100 µM"

If you can, please state the reported TGI value of O=C(O)c1ccc(Nc2nc3nn(Cc4ccccc4)cc3c(=O)s2)cc1 . > 100 µM

If you can, please state the reported TGI value of NS(=O)(=O)c1nnc(NS(=O)(=O)c2ccc([N+](=O)[O-])cc2)s1 . > 100 µM

If you can, please state the reported TGI value of Cc1noc(C)c1-c1cnc2c(-c3ccc(C(=O)O)cc3)cn([C@@H](C)c3ccccn3)c2c1 . 34.6 µM

----------
# Tested on: XF 498 CNS
# assay.notes: NCI tumour cell line growth inhibition, 48 h
readout.label: TGI

The cases that follow already have their TGI on record.
>>> experimental_result("CCN(CC)c1ccc(N=Nc2ccc(-c3nc4cccn(C)c-4n3)cc2)cc1")
"28.1 µM"
>>> experimental_result("CCCCCCCCCC(=O)NC(Cc1ccc(O)cc1)C(=O)NCCCNCCCCNCCCNC(=O)[C@@H](N)CCCN=C(N)N (some centres not stated)")
"> 100 µM"
>>> experimental_result("CC(C)=C1CCC(CN2CCOCC2)C1=O (configuration not stated)")
"26.4 µM"
>>> experimental_result("COc1ccc2c(c1)CCc1c(CO)c(COC(=O)NC(C)C)n(C)c1-2")
"> 62.6 µM"
>>> experimental_result("COC(=O)/C(=C/c1ccc(OC)cc1)C(C(=O)O)=C1CCCCC1")
"> 100 µM"

Observed TGI on XF 498 CNS for CCC(C)(O)c1cn(-c2ccc(S(=O)(=O)O)cc2)nn1 (configuration not stated) , please. > 100 µM

Observed TGI on XF 498 CNS for CCC[CH2][Sn]([CH2]CCC)([O]C(=O)c1cccc(F)c1F)[O]C(=O)c1cccc(F)c1F , please. 2.97 µM

Observed TGI on XF 498 CNS for OC12CCC3(O)c4ccccc4C3C1c1ccccc12 (configuration not stated) , please. > 100 µM

Observed TGI on XF 498 CNS for Cc1cc2c(cc1CO)N1Cc3cc(C)c(CO)cc3N(C2)C1 , please. > 100 µM

Observed TGI on XF 498 CNS for CN1CCCN2CCN(C)CCCN(CC1)CC2 , please. > 100 µM

Observed TGI on XF 498 CNS for Cc1ccccc1N=Nc1c(-c2ccccc2)nn(C(=O)CC(=O)Nc2cccc(Cl)c2)c1-c1ccccc1 , please. 74.6 µM

Observed TGI on XF 498 CNS for CCn1c(CSc2nc(-c3ccccc3)c(-c3ccccc3)[nH]2)n[nH]c1=S , please. > 100 µM
